Attribute: Emax
# Test Target: SMARCA2 (Homo sapiens)
# Construct: endogenous in cells; host or cells: HT1080 (CRISPR HiBiT knock-in clone, generated in house)
# Sequence (P51531 whole entry): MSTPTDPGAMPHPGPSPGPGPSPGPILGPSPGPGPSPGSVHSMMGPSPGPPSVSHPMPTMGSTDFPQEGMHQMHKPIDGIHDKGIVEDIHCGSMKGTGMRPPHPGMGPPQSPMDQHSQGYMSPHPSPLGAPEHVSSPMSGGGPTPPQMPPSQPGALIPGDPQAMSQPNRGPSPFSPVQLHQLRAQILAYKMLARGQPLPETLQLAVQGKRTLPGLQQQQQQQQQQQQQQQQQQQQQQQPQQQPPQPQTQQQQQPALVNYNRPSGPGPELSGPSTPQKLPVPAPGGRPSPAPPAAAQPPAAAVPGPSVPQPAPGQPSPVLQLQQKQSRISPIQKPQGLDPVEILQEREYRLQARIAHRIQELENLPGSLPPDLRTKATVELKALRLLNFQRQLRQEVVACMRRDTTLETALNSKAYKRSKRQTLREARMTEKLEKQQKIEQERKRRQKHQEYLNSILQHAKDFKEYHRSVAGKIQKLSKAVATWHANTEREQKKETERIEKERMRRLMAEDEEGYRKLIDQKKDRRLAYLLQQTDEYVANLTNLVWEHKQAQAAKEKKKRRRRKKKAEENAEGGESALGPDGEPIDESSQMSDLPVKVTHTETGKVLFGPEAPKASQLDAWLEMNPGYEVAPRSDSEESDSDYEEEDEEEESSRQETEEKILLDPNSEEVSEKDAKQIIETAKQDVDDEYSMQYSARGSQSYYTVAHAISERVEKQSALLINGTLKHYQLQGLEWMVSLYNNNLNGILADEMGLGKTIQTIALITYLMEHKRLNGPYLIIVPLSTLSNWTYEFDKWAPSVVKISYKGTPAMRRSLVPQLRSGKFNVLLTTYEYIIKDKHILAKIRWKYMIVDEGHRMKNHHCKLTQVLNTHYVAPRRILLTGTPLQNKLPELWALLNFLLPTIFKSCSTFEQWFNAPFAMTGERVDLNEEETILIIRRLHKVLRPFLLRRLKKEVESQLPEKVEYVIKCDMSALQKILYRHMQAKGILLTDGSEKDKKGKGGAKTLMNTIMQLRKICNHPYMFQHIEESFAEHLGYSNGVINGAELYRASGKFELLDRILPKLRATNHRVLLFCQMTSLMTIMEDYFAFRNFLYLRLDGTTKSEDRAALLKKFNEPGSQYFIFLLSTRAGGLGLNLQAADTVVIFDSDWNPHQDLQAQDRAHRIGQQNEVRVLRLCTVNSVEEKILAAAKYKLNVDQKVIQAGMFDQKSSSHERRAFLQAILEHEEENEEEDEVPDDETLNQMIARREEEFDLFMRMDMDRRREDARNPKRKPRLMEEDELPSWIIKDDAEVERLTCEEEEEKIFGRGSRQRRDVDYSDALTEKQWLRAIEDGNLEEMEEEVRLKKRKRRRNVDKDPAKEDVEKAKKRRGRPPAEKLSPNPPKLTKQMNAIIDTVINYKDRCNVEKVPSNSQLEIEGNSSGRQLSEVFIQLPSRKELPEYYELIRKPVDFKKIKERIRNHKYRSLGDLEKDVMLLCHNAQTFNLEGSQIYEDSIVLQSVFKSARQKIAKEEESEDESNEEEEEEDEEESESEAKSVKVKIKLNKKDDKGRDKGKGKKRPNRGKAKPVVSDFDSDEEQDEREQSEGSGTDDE
# Assay Notes: SMARCA2 HiBiT degradation assay (cellular)
# Format: cell-based
# Assay Setup: A549, 6 h incubation; Emax = amount of residual protein remaining in the cell following compound treatment; table head names A549
Reported Endpoint: Emax (%)

molecule="Nc1nnc(-c2ccccc2O)cc1N1CC2CCC(C1)N2c1cccc(OCCN2CCN(C(=O)CCNC(=O)C3CCN(c4ccc5c(c4)C(=O)N(C4CCC(=O)NC4=O)C5=O)CC3)CC2)c1 (racemic)" test_target="SMARCA2 (Homo sapiens)" units_symbol=% recorded_value=49
molecule="Nc1ccccc1-c1cc(N2CC3CCC(C2)N3c2cccc(CN3CCN(C(=O)C4CCN(c5ccc6c(c5)C(=O)N(C5CCC(=O)NC5=O)C6=O)CC4)CC3)c2)c(N)nn1 (stereo not shown)" test_target="SMARCA2 (Homo sapiens)" units_symbol=% recorded_value=69
molecule="Nc1nnc(-c2ccccc2O)cc1N1CCN(c2ccccc2)C(C(=O)NC2CCN(C(=O)CCC3CCN(c4ccc5c(c4)C(=O)N(C4CCC(=O)NC4=O)C5=O)CC3)CC2)C1 (stereo not shown)" test_target="SMARCA2 (Homo sapiens)" units_symbol=% recorded_value=63
molecule="Nc1nnc(-c2ccccc2O)cc1N1CCC(C(=O)NCC2CCN(C(=O)C3CCN(c4ccc5c(c4)C(=O)N(C4CCC(=O)NC4=O)C5=O)CC3)CC2)(c2ccccc2)CC1 (stereo not shown)" test_target="SMARCA2 (Homo sapiens)" units_symbol=% recorded_value=37
molecule="Nc1nnc(-c2ccccc2O)cc1N1CC2CCC(C1)N2c1cccc(OCCN2CCN(C(=O)N3CC4(C3)CN(c3ccc5c(c3)C(=O)N(C3CCC(=O)NC3=O)C5=O)C4)CC2)c1 (racemic)" test_target="SMARCA2 (Homo sapiens)" units_symbol=% recorded_value=48
molecule="Nc1nnc(-c2ccccc2O)cc1OC1CCCN(c2ccc(OCCN3CCN(C(=O)CCCCCCCCCCCCCCn4cc(CNc5cccc6c5C(=O)N(C5CCC(=O)NC5=O)C6=O)nn4)CC3)cc2)C1 (stereo not shown)" test_target="SMARCA2 (Homo sapiens)" units_symbol=% recorded_value=56
molecule="Nc1nnc(-c2ccccc2O)cc1N1CC2CCC(C1)N2c1cccc(OCCN2CCN(C(=O)CCCCCNc3cccc4c3C(=O)N(C3CCC(=O)NC3=O)C4=O)CC2)c1 (racemic)" test_target="SMARCA2 (Homo sapiens)" units_symbol=% recorded_value=55
molecule="Nc1nnc(-c2ccccc2O)cc1N1CCC(C(=O)N2CCC(C(=O)N3CCN(Cc4ccc5c(c4)C(=O)N(C4CCC(=O)NC4=O)C5=O)CC3)CC2)(c2ccccc2)CC1 (stereo not shown)" test_target="SMARCA2 (Homo sapiens)" units_symbol=% recorded_value=54
molecule="Nc1nnc(-c2ccccc2O)cc1N1CC2CCC(C1)N2c1cccc(OC2CCC(CC(=O)N3CC4(C3)CN(C(=O)C3CCN(c5ccc6c(c5)C(=O)N(C5CCC(=O)NC5=O)C6=O)CC3)C4)CC2)c1 (racemic)" test_target="SMARCA2 (Homo sapiens)" units_symbol=% recorded_value=55
molecule="Nc1nnc(-c2ccccc2O)cc1N1CCC(CNC(=O)CCCN2CCC(c3ccc(OC4CCC(=O)NC4=O)cc3)CC2)(c2ccccc2)CC1 (stereo not shown)" test_target="SMARCA2 (Homo sapiens)" units_symbol=% recorded_value=35
